# TEST_NAME: Compound cytotoxicity measured by an ATP content assay as a counter-screen for lead compounds in human astrocytoma cell line (SNB-19)
# EXPERIMENTAL_CONDITIONS: SNB-19 astrocytoma viability, ATP luminescence; series mostly up to 46.1 µM
Results filed as inconclusive are left out. Active and inactive are the calls of the source. Calls come from the whole dose curve; as a rule, active = well fitted cell-killing curve with a large enough effect; inconclusive = small, poorly fitted or top-dose-only effect, or effect the other way; inactive = flat fitted curve, though single readings scatter.
Please reply with one of these outcomes: YES = active, NO = inactive

Worked examples follow.
S=C(SSC(=S)N1CCCCC1)N1CCCCC1; NO
CC(O)CN1CCN(CC(=O)[O-])CCN(CC(=O)[O-])CCN(CC(=O)[O-])CC1.[Gd+3] (stereo not drawn); NO
COc1cccc2c1C(=O)c1c(O)c3c(c(O)c1C2=O)C[C@@](O)(C(=O)CO)CC3OC1CC(N2CCOC(OC)C2)C(O)C(C)O1 (stereo partly drawn); NO
CN1CC[C@@]2(C)c3cc(OC(=O)Nc4ccccc4)ccc3N(C)[C@@H]12; NO
Oc1ccc([C@H]2CNCc3c2ccc(O)c3O)cc1O; NO
O=C1C=CC[C@@H]2[C@H]3CCCN4CCC[C@@H](CN12)[C@@H]34; NO
O=C1CCC[C@@H]2[C@H]3CCCN4CCC[C@@H](CN12)[C@@H]34; NO

Assay result, entry Cc1ccc([N+](=O)[O-])[c]2c1[O][Hg]2 — outcome? YES
